Data credit: the supplement of paper PMC6555819

- Test system: PPARg:RXRa 30nM:10nM, anti-RXR (NR concentration 30 nM, RXRa partner concentration 10 nM)
- measurement notes: PBM binding z-score (relative to random genomic background probes); higher = stronger binding; sequences stand for … in GC…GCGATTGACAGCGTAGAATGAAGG
Classify by PBM binding z-score. Ranges: low value (below 0.4), medium value (0.4 to below 2), high value (2 or more)

### Prompt Please indicate the class for ATATGTAGGTTAAGGGTCATTCGGGTTGGTTCGC based on its PBM binding z-score.
### Response high value

### Prompt Please indicate the class for TCTAGATGGTCAAAGGTCACACACTCGAAATGCG based on its PBM binding z-score.
### Response high value

### Prompt Please indicate the class for GCTTACGGGTCAAAGGTTTTAGCATGAATAGAAT based on its PBM binding z-score.
### Response high value

### Prompt Please indicate the class for CGACCAAGGTCAAGGTCAGTGAAAGAGACTCGAA based on its PBM binding z-score.
### Response high value

### Prompt Please indicate the class for TCGAGTAGGTTACCAACGGGGCATTCAGCTTTCT based on its PBM binding z-score.
### Response medium value

### Prompt Please indicate the class for CTAGAAAGGTCGGTTGAGGTGAGTATACGGATAA based on its PBM binding z-score.
### Response low value

### Prompt Please indicate the class for CCTCGGAGGACAACAGGAGCTCAGAGCTGCCAGA based on its PBM binding z-score.
### Response low value

### Prompt Please indicate the class for ACTATTAGTGGACTTAGGGCAACCGATACGACGC based on its PBM binding z-score.
### Response low value

### Prompt Please indicate the class for TAGCCTAGGTCCTGGGCCAGTATACCACGCGAAC based on its PBM binding z-score.
### Response low value

### Prompt Please indicate the class for AATCAAAGTTCACTAGGTAACGTAAGATTCAGCT based on its PBM binding z-score.
### Response high value

### Prompt Please indicate the class for AATACAGGGGCACTAGGCCAGAGTAGGTACGAAT based on its PBM binding z-score.
### Response medium value

### Prompt Please indicate the class for GCTCGGAGGACAAGGTCAGACCTTTGTCCGTAGA based on its PBM binding z-score.
### Response low value

### Prompt Please indicate the class for ATCACTAGGTAACAAGTTCAGTGAAAGAGAGGAC based on its PBM binding z-score.
### Response medium value

### Prompt Please indicate the class for GCGCCTGGGGCAAAGCAGGTTACCATAAGGTTGG based on its PBM binding z-score.
### Response low value

### Prompt Please indicate the class for AGAATGAGGTTACCAAAGATAAGGGAAACGCTTG based on its PBM binding z-score.
### Response medium value

### Prompt Please indicate the class for ATATGTAGGTTACATCCGGGGCATTCAGGCTATG based on its PBM binding z-score.
### Response medium value

### Prompt Please indicate the class for AGAACGATGGCAATGAGTTGATAGCACGGGTGGC based on its PBM binding z-score.
### Response low value

### Prompt Please indicate the class for ATATGTAGGCTAAGGGTCATTCAGGTTGGTTCGC based on its PBM binding z-score.
### Response high value

### Prompt Please indicate the class for CCTACTGGGCCAAAAAGGTCAGTGATGCCGATAA based on its PBM binding z-score.
### Response medium value

### Prompt Please indicate the class for CAAGCTAGGTCACAGAGGTCAAAGTCCGTGCGTA based on its PBM binding z-score.
### Response high value

### Prompt Please indicate the class for TGAATGAGGCTAAAGATCAGGGAACGTGGCGTCG based on its PBM binding z-score.
### Response high value

### Prompt Please indicate the class for ATCTCCAGGTAAGACTCAGTTCAGTGAAGAACGC based on its PBM binding z-score.
### Response medium value

### Prompt Please indicate the class for ATATGTAGGTTAGCTGGGGTCATTTAGACTAGGC based on its PBM binding z-score.
### Response high value

### Prompt Please indicate the class for GCATATAGGTAATACAAGGTGGAAGTCCGATTGT based on its PBM binding z-score.
### Response medium value

### Prompt Please indicate the class for ACTGACGGGTCAACGAGGTTATAGCACGCGTATA based on its PBM binding z-score.
### Response medium value

### Prompt Please indicate the class for CAGCCTAGGTCAGGACCAGTATAGGAGGAACGTT based on its PBM binding z-score.
### Response low value

### Prompt Please indicate the class for TCATATTGGTAATACAGGTGAAAGTCGGCATCTA based on its PBM binding z-score.
### Response high value

### Prompt Please indicate the class for CCTACTGGCCCATTCAGAGGTCATTGATCATATG based on its PBM binding z-score.
### Response low value

### Prompt Please indicate the class for GTACCAAGGTGAATAGGTCGTTGACGAGTAGGCG based on its PBM binding z-score.
### Response medium value

### Prompt Please indicate the class for CCAGACAGGTGAGAAGGAAACTCAGCCTCGATTA based on its PBM binding z-score.
### Response low value

### Prompt Please indicate the class for TCATATAGGTAAACAGGTGAAAGTTCGTAAGTTA based on its PBM binding z-score.
### Response high value

### Prompt Please indicate the class for CCAGACAGGTGCAAGGTAACTCAGTCTGGTACGC based on its PBM binding z-score.
### Response low value

### Prompt Please indicate the class for AGACCAAGGTGATCGTGAGGTCGTTGATACTAAC based on its PBM binding z-score.
### Response low value

### Prompt Please indicate the class for TCTAGTTGGTCAAAGATCACACACTCGAAATGCG based on its PBM binding z-score.
### Response high value

### Prompt Please indicate the class for ACTATTAGTTGACTTAGGGGAACCGATACGACGC based on its PBM binding z-score.
### Response low value

### Prompt Please indicate the class for TCATATAGGTAAATGCTAGGTGCAAGTCCGATCT based on its PBM binding z-score.
### Response high value

### Prompt Please indicate the class for TAGCCTAGGTCAGATCGGGCCAGCATACGCTATA based on its PBM binding z-score.
### Response low value

### Prompt Please indicate the class for CGAACTAGGTCAAGAGGTCAAAGTCCGCTTCCCG based on its PBM binding z-score.
### Response high value

### Prompt Please indicate the class for TAGCCTAGGTCACGCGGGCCAGTATAGTGTCGGC based on its PBM binding z-score.
### Response medium value

### Prompt Please indicate the class for CTTCCAAGGTCATAGGAGGTCAGTGAAGACAGAT based on its PBM binding z-score.
### Response high value

### Prompt Please indicate the class for ATCGAAAGGTCGAAGGTGAGAATACCCACCCGAA based on its PBM binding z-score.
### Response high value

### Prompt Please indicate the class for AGAATGAGGTTATGATCAGGGAAACAGAATACAT based on its PBM binding z-score.
### Response medium value

### Prompt Please indicate the class for GCTTGTAGATCAAGGCTAAGAAAGACTAAGCTAA based on its PBM binding z-score.
### Response low value

### Prompt Please indicate the class for TAGCCTAGGTCAGATCGGGCTAGTATACGCTATA based on its PBM binding z-score.
### Response low value

### Prompt Please indicate the class for ATAGAAAGGTCGACGAGGTGAGTATACACCGTTT based on its PBM binding z-score.
### Response medium value

### Prompt Please indicate the class for AACGAAAGGTCGTGAGGTGAGTATACAGAAAGGC based on its PBM binding z-score.
### Response medium value

### Prompt Please indicate the class for CCGACTGGGGCAAAGGCTACCATACTCAGTACGA based on its PBM binding z-score.
### Response high value

----------
Provide the reported PBM binding z-score of each item.
- System: PPARa:RXRa (NR concentration 270 nM, RXRa partner concentration 90 nM)
- measurement notes: PBM binding z-score (relative to random genomic background probes); higher = stronger binding; sequences stand for … in GC…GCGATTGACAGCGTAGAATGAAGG

### Prompt Param item = GCTGCTAGGTCAAGTTGGTCAGCTAACGGGTACG ; retrieve measured PBM binding z-score.
### Response 3.64

### Prompt Param item = AGAATGAGGTTATTGAGATCAGGGAATTGCGGTC ; retrieve measured PBM binding z-score.
### Response 2.79

### Prompt Param item = TCATGTAGGTAAACAGGTGAAAGTCCGTAAGTTA ; retrieve measured PBM binding z-score.
### Response 2.46

### Prompt Param item = TCAGACAAGTGAAGGTAACTCAGGTACGCAGTCG ; retrieve measured PBM binding z-score.
### Response 0.902

### Prompt Param item = TATACAGGGTCAAATGCCAGAGTACGAATGTCGA ; retrieve measured PBM binding z-score.
### Response 6.33

### Prompt Param item = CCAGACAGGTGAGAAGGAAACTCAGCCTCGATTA ; retrieve measured PBM binding z-score.
### Response 0.0665
